molecular target: CDK9 (Homo sapiens)
pIC50: −log10 of the molar value.
Quantity: pIC50

Compound: Cc1nc2ccccc2n1-c1ccnc(Nc2cccc(S(N)(=O)=O)c2)n1 [Compound 4e]
Measurement Target: CDK9 (Homo sapiens)
pIC50: 6.39

a: Cc1cnc(Nc2cccc(S(N)(=O)=O)c2)nc1-n1c(C(C)C)nc2ccccc21 [Compound 4o]
b: NS(=O)(=O)c1cccc(Nc2nccc(-n3cnc4ccccc43)n2)c1 [Compound 4a]
Record comparison, field pIC50: mark the lower of a and b . // caller expects the label of the chosen entry a
(a: 5.98, b: 6.40)

----------
target: CDK9 (Homo sapiens, UniProt P50750); test: biochemical
Sequence (P50750 whole entry): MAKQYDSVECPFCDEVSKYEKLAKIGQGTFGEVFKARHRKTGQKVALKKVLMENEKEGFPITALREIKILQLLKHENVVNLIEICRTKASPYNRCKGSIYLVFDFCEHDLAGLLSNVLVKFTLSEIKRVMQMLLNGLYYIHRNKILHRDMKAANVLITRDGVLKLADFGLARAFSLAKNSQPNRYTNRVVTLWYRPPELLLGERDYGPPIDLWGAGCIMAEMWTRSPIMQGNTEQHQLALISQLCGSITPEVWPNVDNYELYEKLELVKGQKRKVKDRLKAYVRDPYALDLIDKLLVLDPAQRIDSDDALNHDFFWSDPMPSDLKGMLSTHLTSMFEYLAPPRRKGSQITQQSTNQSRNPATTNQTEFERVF
Sequence (O60563 whole entry partner): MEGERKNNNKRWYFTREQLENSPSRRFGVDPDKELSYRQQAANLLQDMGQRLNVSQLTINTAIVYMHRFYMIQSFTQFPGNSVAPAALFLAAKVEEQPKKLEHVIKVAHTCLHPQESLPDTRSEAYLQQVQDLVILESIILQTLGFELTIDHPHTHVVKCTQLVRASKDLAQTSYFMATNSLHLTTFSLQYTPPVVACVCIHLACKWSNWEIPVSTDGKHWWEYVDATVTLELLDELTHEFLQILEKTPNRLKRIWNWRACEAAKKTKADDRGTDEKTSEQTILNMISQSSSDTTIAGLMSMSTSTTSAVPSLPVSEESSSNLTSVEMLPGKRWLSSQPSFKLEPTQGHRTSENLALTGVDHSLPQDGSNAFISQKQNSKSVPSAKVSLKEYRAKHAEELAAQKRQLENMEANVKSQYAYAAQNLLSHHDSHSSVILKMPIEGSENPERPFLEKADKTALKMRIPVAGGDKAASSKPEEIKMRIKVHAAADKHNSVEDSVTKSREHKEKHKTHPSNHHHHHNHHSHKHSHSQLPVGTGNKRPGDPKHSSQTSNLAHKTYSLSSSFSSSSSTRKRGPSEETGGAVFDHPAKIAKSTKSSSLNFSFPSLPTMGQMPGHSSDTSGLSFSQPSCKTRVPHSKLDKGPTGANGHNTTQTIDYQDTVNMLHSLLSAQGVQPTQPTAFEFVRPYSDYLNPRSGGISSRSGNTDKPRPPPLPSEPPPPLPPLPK
Quantity: IC50 (nM)

Some compounds with known IC50 results, for comparison:
Compound Structure String: Cc1cnc(Nc2cccc(S(N)(=O)=O)c2)nc1-n1c(C2CC2)nc2ccccc21
Quantity: IC50
Observed Measurement: 408
//
Compound Structure String: CC(C)c1nc2ccccc2n1-c1ccnc(Nc2cccc(S(N)(=O)=O)c2)n1
Quantity: IC50
Observed Measurement: 40
//
Compound Structure String: Cc1nc2ccccc2n1-c1nc(Nc2cccc(S(N)(=O)=O)c2)ncc1F
Quantity: IC50
Observed Measurement: 762
//
Compound Structure String: NS(=O)(=O)c1cccc(Nc2ncc(C(F)(F)F)c(-n3c(C(F)(F)F)nc4ccccc43)n2)c1
Quantity: IC50
Observed Measurement: 1670
//
Compound Structure String: Cc1nc2ccccc2n1-c1nc(Nc2cccc(S(N)(=O)=O)c2)ncc1C(F)(F)F
Quantity: IC50
Observed Measurement: 50
//
Compound Structure String: NS(=O)(=O)c1cccc(Nc2ncc(F)c(-n3cnc4ccccc43)n2)c1
Quantity: IC50
Observed Measurement: 1150

a: CC(C)c1nc2ccccc2n1-c1nc(Nc2cccc(S(N)(=O)=O)c2)ncc1C(F)(F)F
b: Cc1cnc(Nc2cccc(S(N)(=O)=O)c2)nc1-n1cnc2ccccc21
c: NS(=O)(=O)c1cccc(Nc2ncc(F)c(-n3c(C4CC4)nc4ccccc43)n2)c1
d: Cc1cnc(Nc2cccc(S(N)(=O)=O)c2)nc1-n1c(C(F)(F)F)nc2ccccc21
# ascending order, key=IC50 Put the labels in the requested order and list them out. b, a, c, d

a: Cc1cnc(Nc2cccc(S(N)(=O)=O)c2)nc1-n1c(C)nc2ccccc21
b: NS(=O)(=O)c1cccc(Nc2ncc(C(F)(F)F)c(-n3cnc4ccccc43)n2)c1
c: NS(=O)(=O)c1cccc(Nc2nccc(-n3c(C4CC4)nc4ccccc43)n2)c1
d: CC(C)c1nc2ccccc2n1-c1nc(Nc2cccc(S(N)(=O)=O)c2)ncc1F
# ascending order, key=IC50 Put the labels in the requested order and list them out. c, a, d, b
(c: 57 nM, a: 114 nM, d: 392 nM, b: 782 nM)

A: NS(=O)(=O)c1cccc(Nc2ncc(C(F)(F)F)c(-n3c(C4CC4)nc4ccccc43)n2)c1
B: NS(=O)(=O)c1cccc(Nc2nccc(-n3c(C(F)(F)F)nc4ccccc43)n2)c1
C: NS(=O)(=O)c1cccc(Nc2ncc(F)c(-n3c(C(F)(F)F)nc4ccccc43)n2)c1
List items by IC50 in falling order. Put the labels in the requested order and list them out. B, A, C
